The values you see were collected from paper PMC10814857.

testTarget: SH3GLB1 SH3 domain (aa 305-365) (Homo sapiens)
Construct: 305-365; GST (N); made in house; host or cells: Escherichia coli CodonPlus, Rosetta, BL21(DE3)
Sequence (Q9Y371 305-365): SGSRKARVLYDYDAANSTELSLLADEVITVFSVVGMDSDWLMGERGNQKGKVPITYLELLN
procedureText: Fluorescence polarization SH3 domain-PRP binding
runParameters: FP, 0.2 µM fluorescein-labeled peptide, SH3 domain 0-200 µM, Tris/HCl pH 7.5, 25 °C, quadratic fit
Experimental: The interaction between fluorescein-labeled proline-rich peptides (0.2 µM) and increasing concentrations of SH3 domains (ranging from 0 to 200 µM) was measured in a buffer (containing 30 mM Tris/HCl (pH 7.5), 5 mM MgCl2, and 3 mM DTT at 25 °C) in a total volume of 200 µL using a Fluoromax 4 fluorimeter in polarization mode and a quartz glass fluorescence cuvette (Hellma Ultra-Micro Cuvette 105.250-QS, Thermo Fisher Scientific, Waltham, MA USA). […]
pKd: −log10 of the molar value. Peptide text beside a SMILES is read from it.
Overview of reported pKd across a group of compounds:

Please review the entries below; each comes with its answer.
Q: What does the data say about its pKd? Entry: CC(C)C[C@H](NC(=O)[C@@H]1CCCN1C(=O)[C@@H](NC(=O)[C@H](CCCNC(=N)N)NC(=O)[C@@H]1CCCN1C(=O)[C@H](CO)NC(=O)[C@H](CC(N)=O)NC(=O)[C@@H]1CCCN1C(=O)[C@H](C)NC(=O)[C@@H](N)CO)[C@@H](C)O)C(=O)N[C@H](C(=O)N1CCC[C@H]1C(=O)N1CCC[C@H]1C(=O)N1CCC[C@H]1C(=O)N[C@@H](C)C(=O)N[C@@H](CO)C(=O)O)[C@@H](C)O [Peptide P1] (H-SAPNSPRTPLTPPPAS-OH)
Ans: < 3.70

Q: What does the data say about its pKd? Entry: CC(C)[C@H](NC(=O)[C@@H]1CCCN1C(=O)[C@@H]1CCCN1C(=O)[C@H](C)NC(=O)[C@H](CCC(=O)O)NC(=O)[C@H](CS)NC(=O)[C@@H](N)CCCNC(=N)N)C(=O)N1CCC[C@H]1C(=O)N1CCC[C@H]1C(=O)N[C@@H](CCCNC(=N)N)C(=O)N[C@@H](CCCNC(=N)N)C(=O)N[C@@H](CCC(=O)O)C(=O)N[C@@H](CCCNC(=N)N)C(=O)NCC(=O)O [RP2, reference compound] (H-RCEAPPVPPRRERG-OH)
Ans: < 3.70

Q: What does the data say about its pKd? Entry: CC[C@H](C)[C@H](NC(=O)[C@H](C)NC(=O)[C@@H]1CCCN1C(=O)[C@@H]1CCCN1C(=O)[C@H](CO)NC(=O)[C@H](CC(=O)O)NC(=O)[C@@H](N)CC(C)C)C(=O)N1CCC[C@H]1C(=O)N1CCC[C@H]1C(=O)N[C@@H](CCCNC(=N)N)C(=O)N[C@@H](CCC(N)=O)C(=O)N1CCC[C@H]1C(=O)N[C@H](C(=O)N[C@@H](CO)C(=O)N[C@@H](CCCCN)C(=O)O)[C@@H](C)O [Peptide P4] (H-LDSPPAIPPRQPTSK-OH)
Ans: < 3.70

Others:
Q: What does the data say about its pKd? Entry: CC[C@H](C)[C@H](NC(=O)[C@H](Cc1c[nH]cn1)NC(=O)[C@@H](N)CCC(N)=O)C(=O)N1CCC[C@H]1C(=O)N[C@@H](CCCCN)C(=O)N[C@@H](CC(C)C)C(=O)N1CCC[C@H]1C(=O)N1CCC[C@H]1C(=O)N[C@@H](CCCCN)C(=O)N[C@H](C(=O)N[C@@H](Cc1ccc(O)cc1)C(=O)O)[C@@H](C)O [Peptide P10] (H-QHIPKLPPKTY-OH; N-terminus and C-terminus assumed)
Ans: < 3.70
